- experiment-notes: Example 1: phase I crossover food-effect study, single-dose pharmacokinetics of nelfinavir 250 mg tablets (total kilocalories and fat)
- Format: in vivo, human (normal healthy volunteers)
- recorded-conditions: human, plasma, po, 1250 mg, nelfinavir; 1250 mg single oral dose with moderate calorie/low fat meal (500 Kcal/20% fat); read-out: AUC(0-∞) (AUCinf), least-squares mean
property-measured: AUC(0-inf) (µg·h/mL)

Cc1c(O)cccc1C(=O)N[C@@H](CSc1ccccc1)[C@H](O)CN1C[C@H]2CCCC[C@H]2C[C@H]1C(=O)NC(C)(C)C (relative stereo) | 33.4

###

- experiment-notes: Example 2: phase 1 crossover 3×3 study, fixed kilocalorie meal at 20% and 50% fat, single-dose pharmacokinetics of nelfinavir 250 mg tablets
- Type: in vivo, human (normal, healthy volunteers)
- recorded-conditions: human, plasma, oral, 1250 mg, Kcal/Fat % 500/20%; read-out: Nelfinavir AUC∞
property-measured: AUC(0-inf) (ng·h/mL)

Cc1c(O)cccc1C(=O)N[C@@H](CSc1ccccc1)[C@H](O)CN1C[C@H]2CCCC[C@H]2C[C@H]1C(=O)NC(C)(C)C (relative stereo) | 32700
